# Measurement Protocol: GSH arylation rate constants (NMR; UV-vis for fast warheads)
# Format: physicochemical
# Experimental Conditions: pH 7.0; ratio to rate constant of 4q; acceleration (+) or deceleration (-)
Metric Name: k change (vs ref)

CS(=O)(=O)c1ncc(I)cn1; +26 fold
Nc1ccc(S(=O)(=O)c2ncccn2)cc1; -5 fold
CCCCS(=O)(=O)c1ncccn1; -3 fold
Cc1cnc(S(C)(=O)=O)nc1; -15 fold
CS(=O)(=O)c1ncc(C(F)(F)F)cn1; +76,000 fold

List k change (vs ref) for every entry below, keeping the order given.
1. CS(=O)(=O)c1nccc(C(N)=O)n1
2. CS(=O)(=O)c1ncc(Cl)c(C(=O)O)n1

a:
1: +12 fold; 2: +7 fold

q: What measured k change (vs ref) goes with CS(=O)(=O)c1nc2ccccc2s1 [compound 9, 2-Methysulfonylbenzothiazole, reference compound] ?
a: +9 fold

* * *

Assignment: determine reported melting point for the given compounds.
Give bare numbers, in °C.

# count of solved cases: 10
CSc1ncc([N+](=O)[O-])cn1; 84
CS(=O)(=O)c1ncc([N+](=O)[O-])cn1; 113
O=[N+]([O-])c1ccc(S(=O)(=O)c2ncccn2)cc1; 225
CSc1ncc(C(=O)O)cn1; 251
COC(=O)c1ccnc(S(C)(=O)=O)n1; 80
CS(=O)(=O)c1ncc(-c2ccccc2)cn1; 180
CS(=O)(=O)c1ncc(I)cn1; 56
COC(=O)c1cnc(S(C)(=O)=O)nc1; 128
CS(=O)(=O)c1nccc(C(F)(F)F)n1; 82
CS(=O)(=O)c1ncc(N)cn1; 138

Your task in this section: give melting point for each listed record.
1. CS(=O)(=O)c1ncc(C(=O)O)cn1
2. CSc1ncc(I)cn1
3. CC(C)(C)S(=O)(=O)c1ncccn1
4. CSc1ncc(-c2ccccc2)cn1
5. COc1ccnc(S(C)(=O)=O)n1
6. CS(=O)(=O)c1nccc(N)n1

a:
1: 138; 2: 104; 3: 58; 4: 98; 5: 60; 6: 166

* * *

# Measurement Protocol: Hydrolytic stability in KPi buffer without thiol (NMR)
# Format: physicochemical
# Experimental Conditions: buffer in the absence of GSH
Metric Name: hydrolysis in aqueous buffer (in words)

CS(=O)(=O)c1nccc(C(F)(F)F)n1; partial, slow hydrolysis
CS(=O)(=O)c1ncc(C(F)(F)F)cn1; partial, slow hydrolysis
CS(=O)(=O)c1ncc([N+](=O)[O-])cn1; partial, slow hydrolysis

* * *

# System Under Test: β-catenin ARD (Homo sapiens)
# Construct: vector pLipK-ARD (residues 150 – 662) was used; 6xHis-Lip (6xHis, lipoyl domain); made in house; host or cells: E. coli BL21(DE3) pRARE2
# Measurement Protocol: Differential scanning fluorimetry (DSF)
# Format: binding
# Experimental Conditions: 100 μM compound; 8 µM β-cat; read-out: Protein thermal stability ΔTm
Metric Name: ΔTm at 100 µM (°C)
Give bare numbers, in °C.

Count: 5. Required value per item: ΔTm at 100 µM.
1. O=S(=O)(CC(F)(F)F)c1ncccn1
2. Cc1ccnc(S(C)(=O)=O)n1
3. Cc1cc(C)nc(S(C)(=O)=O)n1
4. COC(=O)c1ccnc(S(C)(=O)=O)n1
5. COc1ccnc(S(C)(=O)=O)n1

a:
-6.9
-0.1
-0.1
-0.1
-0.1

For the 5 molecules below, give their ΔTm at 100 µM values.
1. O=S(=O)(Oc1c(F)c(F)c(F)c(F)c1F)c1ncccn1
2. CS(=O)(=O)c1nccc(C(F)(F)F)n1
3. CS(=O)(=O)c1nccc(N)n1
4. COc1cc(OC)nc(S(C)(=O)=O)n1
5. CS(=O)(=O)c1ncc(C(F)(F)F)cn1

a:
1. -0.1
2. -1.7
3. -0.1
4. -0.1
5. -3.1

Hi team, please reply with ΔTm at 100 µM for each item in this list.
1. Nc1ccc(S(=O)(=O)c2ncccn2)cc1
2. CS(=O)(=O)c1nccc(C(N)=O)n1

a:
1. -0.1
2. -0.3

* * *

# System Under Test: p53-Y220C (Homo sapiens, UniProt P04637, M133L/N239Y/N268D/V203A/Y220C)
# Construct: (residues 94-312); 6xHis/lipoyl domain/TEV protease cleavage site (N, cleaved yes); made in house; host or cells: E. coli C41
# Measurement Protocol: Differential scanning fluorimetry (DSF)
# Format: binding
# Experimental Conditions: 100 μM compound; 8 µM p53-Y220C; read-out: Protein thermal stability ΔTm
Kindly supply the reported ΔTm at 100 µM values for the records listed here.
Give bare numbers, in °C.

# annotated cases, reported ΔTm at 100 µM shown
CS(=O)(=O)c1ncc(Br)c(C(=O)O)n1; 0.8
CS(=O)(=O)c1nccc(C(N)=O)n1; -0.2
CC(C)(C)S(=O)(=O)c1ncccn1; 0.2
Nc1ccc(S(=O)(=O)c2ncccn2)cc1; -0.2
O=S(=O)(c1ccccc1)c1ncccn1; 0
Cc1cc(C)nc(S(C)(=O)=O)n1; 0
CS(=O)(=O)c1nccc(-c2ccccc2)n1; 0.2
O=[N+]([O-])c1ccc(S(=O)(=O)c2ncccn2)cc1; 0.4
CS(=O)(=O)c1nccc(C(=O)O)n1; 0.2
COc1cc(OC)nc(S(C)(=O)=O)n1; -0.2

Quick request: ΔTm at 100 µM for each listed item, please.
1. CS(=O)(=O)c1ncc(C(F)(F)F)cn1
2. O=S(=O)(NCc1ccccc1)c1ncccn1

a:
1. 0.8
2. 0.2

* * *

# Measurement Protocol: GSH arylation rate constants (NMR; UV-vis for fast warheads)
# Type: physicochemical
# Experimental Conditions: relative to 4q
Metric Name: k/kref
Give bare numbers.

Please review the following examples before continuing.
COc1cc(OC)nc(S(C)(=O)=O)n1; 0.40
Cc1ccnc(S(C)(=O)=O)n1; 0.17
Nc1ccc(S(=O)(=O)c2ncccn2)cc1; 0.20
CS(=O)(=O)c1ncccn1; 1
CS(=O)(=O)c1ncc(C(=O)O)cn1; 1200

Provide k/kref values for the following items, in order.
1. CS(=O)(=O)c1ncc(C(F)(F)F)cn1
2. CC(C)(C)S(=O)(=O)c1ncccn1

a:
1: 76000; 2: 0.0072

* * *

# System Under Test: β-catenin ARD (Homo sapiens, UniProt P35222)
# Construct: vector pLipK-ARD (residues 150 – 662) was used; 6xHis-Lip (6xHis, lipoyl domain); made in house; host or cells: E. coli BL21(DE3) pRARE2
# Sequence (P35222 150-662): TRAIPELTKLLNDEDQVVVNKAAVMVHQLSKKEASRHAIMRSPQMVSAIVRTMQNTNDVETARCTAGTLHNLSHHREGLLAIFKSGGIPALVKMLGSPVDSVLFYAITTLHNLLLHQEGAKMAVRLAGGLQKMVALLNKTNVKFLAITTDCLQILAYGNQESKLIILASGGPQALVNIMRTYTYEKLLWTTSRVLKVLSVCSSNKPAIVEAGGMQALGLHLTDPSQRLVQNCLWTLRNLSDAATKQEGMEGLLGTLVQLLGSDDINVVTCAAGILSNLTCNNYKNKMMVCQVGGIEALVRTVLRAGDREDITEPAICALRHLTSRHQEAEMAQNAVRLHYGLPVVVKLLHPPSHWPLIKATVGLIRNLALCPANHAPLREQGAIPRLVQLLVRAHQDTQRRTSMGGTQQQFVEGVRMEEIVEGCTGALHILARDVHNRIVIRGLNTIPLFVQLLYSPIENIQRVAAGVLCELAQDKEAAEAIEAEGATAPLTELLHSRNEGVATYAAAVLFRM
# Measurement Protocol: Differential scanning fluorimetry (DSF)
# Type: binding
# Experimental Conditions: 100 μM compound; 8 µM β-cat; read-out: Protein thermal stability ΔTm
Hi there, I'd appreciate the recorded ΔTm at 100 µM for every entry that follows.
Numbers only, in °C.

CS(=O)(=O)c1ncc(-c2ccccc2)cn1; -0.1

Hey, quick one: what's ΔTm at 100 µM for each of these?
1. CS(=O)(=O)c1ncc(Br)c(C(=O)O)n1
2. CS(=O)(=O)c1ncc(I)cn1

a:
1. -0.1
2. -0.1

Please give ΔTm at 100 µM, item by item, for the list that follows.
1. CS(=O)(=O)c1ncc(Br)cn1
2. O=S(=O)(c1ccccc1)c1ncccn1
3. CCCCS(=O)(=O)c1ncccn1
4. O=S(=O)(NCc1ccccc1)c1ncccn1

a:
1. -0.7
2. -0.1
3. -0.1
4. 0.3

* * *

# System Under Test: FGE-C341S (Homo sapiens, UniProt Q8NBK3, C341S)
# Construct: His7 (C); made in house; host or cells: High Five insect cells (baculovirus, pAcGP67B-His7)
# Sequence (Q8NBK3 34-374 C341S): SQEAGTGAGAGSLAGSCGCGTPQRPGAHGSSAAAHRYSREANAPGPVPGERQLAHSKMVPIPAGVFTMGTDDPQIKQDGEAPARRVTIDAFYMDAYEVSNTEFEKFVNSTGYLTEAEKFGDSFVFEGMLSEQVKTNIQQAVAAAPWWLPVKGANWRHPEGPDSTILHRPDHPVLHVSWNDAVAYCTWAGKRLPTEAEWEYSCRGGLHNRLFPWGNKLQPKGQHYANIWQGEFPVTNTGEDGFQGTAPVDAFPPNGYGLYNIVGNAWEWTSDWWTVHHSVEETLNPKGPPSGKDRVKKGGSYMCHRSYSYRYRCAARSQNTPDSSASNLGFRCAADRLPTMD
# Measurement Protocol: Differential scanning fluorimetry (DSF)
# Type: binding
# Experimental Conditions: 100 μM compound; 10 µM FGE; read-out: Protein thermal stability ΔTm
Please respond with reported ΔTm at 100 µM for every item in the list.
Answers are plain numbers, in °C.

Please review the entries below; each comes with its answer.
CS(=O)(=O)c1nccc(C(=O)O)n1; -0.4
CS(=O)(=O)c1nccc(C(N)=O)n1; -0.6
O=[N+]([O-])c1ccc(S(=O)(=O)c2ncccn2)cc1; -0.4
CS(=O)(=O)c1ncc(-c2ccccc2)cn1; -0.2
COC(=O)c1ccnc(S(C)(=O)=O)n1; -0.4

State the recorded ΔTm at 100 µM for every item in the following list.
1. O=S(=O)(NCc1ccccc1)c1ncccn1
2. CS(=O)(=O)c1ncc(I)cn1
3. CS(=O)(=O)c1nccc(-c2ccccc2)n1
4. O=S(=O)(Oc1c(F)c(F)c(F)c(F)c1F)c1ncccn1
5. CS(=O)(=O)c1ncc(Br)c(C(=O)O)n1
6. CS(=O)(=O)c1ncc(C(=O)O)cn1

a:
[0, -0.2, -0.2, -0.2, -0.6, -0.4]

// each listed compound needs a value for ΔTm at 100 µM
1. Cc1ccnc(S(C)(=O)=O)n1
2. CS(=O)(=O)c1ncc(Br)cn1

a:
1: -0.6; 2: -0.4
